Ref: ChEMBL document CHEMBL3797111

- assay_method_text: Bioavailability in Sprague-Dawley rat by HPLC-MS/MS analysis
- Assay type: ADME, organism-based
- particulars: in vivo
So I've got a bunch of molecules here, and I need their bioavailability values.
Lab book: enter the figure in %, no units written.

get_value(item= O=C1NCCN1CCOc1nn(-c2ccc(F)cc2F)c2ccc(F)cc12 , readout=bioavailability) returns 71

get_value(item= O=C1CN(c2cccc3c2cnn3-c2ccccc2F)CCN1CC(=O)N1CC[C@H](F)C1 , readout=bioavailability) returns 84

get_value(item= Fc1ccc2c(c1)c(OCCn1ccnc1)nn2-c1ccccc1F , readout=bioavailability) returns 28

get_value(item= CC(Oc1nn(-c2ccccc2F)c2ccc(F)cc12)C(=O)N1CCOCC1 (stereo not given) , readout=bioavailability) returns 27

get_value(item= O=C(COc1nn(-c2ccccc2F)c2ccc(F)cc12)N1CCOCC1 , readout=bioavailability) returns 22
